# Tested on: MOLT-4 leukemia
# protocol-text: NCI tumour cell line growth inhibition, 48 h
metric-name: TGI

Answered examples (5):
| compound | system | metric-name | reported-measurement |
| --- | --- | --- | --- |
| COC(=O)c1cnn2c1ccc1ccccc12 | MOLT-4 leukemia | TGI | > 100 µM |
| CN(C)C1=NC2=S(SC(Nc3ccccc3)=N2)S1 (stereo unspecified) | MOLT-4 leukemia | TGI | > 100 µM |
| CCCCCCCCCCCCCCCCCC(=O)OCC(C[As](=O)(O)O)OC(=O)CCCCCCCCCCCCCCCCC (stereo unspecified) | MOLT-4 leukemia | TGI | > 100 µM |
| COc1cc(Nc2nc3cc(C(F)(F)F)ccc3nc2-c2ccccc2)cc(OC)c1OC | MOLT-4 leukemia | TGI | > 100 µM |
| COC(=O)CCc1ccc2c(c1)CC1(Cc3ccccc3C1)C2 | MOLT-4 leukemia | TGI | > 100 µM |

Looking up S=C(c1ccc2c(c1)OCO2)N1CCN(c2cccc(Cl)c2)CC1 , I found its TGI recorded as > 55.8 µM

Record Cn1ccnc1C(=O)/C=C/c1ccc(CC(=O)Nc2ccc(F)cc2)cc1 . Reported TGI: 18.1 µM

GET /value?item= CNS(=O)(=O)c1ccc2[nH]c(O)c(C3=Nc4ccccc4C3=O)c2c1 &field=TGI returns > 100 µM

So for CCN(CC)CCCCNc1ncc2cc(-c3cc(OC)cc(OC)c3)c(NC(=O)NC(C)(C)C)nc2n1 , the logged TGI turned out to be 19.4 µM

###

# Tested on: SF-539 CNS
# protocol-text: NCI tumour cell line growth inhibition, 48 h; in the data active means GI50 below about 0.43 µM; inactive means the rest
Thanks in advance; please answer with one of these: active, inactive

Solved cases (5 shown):
| compound | category-label |
| --- | --- |
| COc1ccc2cc(Cn3cc[n+](Cc4ccc5ccccc5c4)c3)ccc2c1 | inactive |
| O=C(NC1CCCCC1)NS(=O)(=O)c1ccc(-n2nc3c(c2-c2ccc(Cl)cc2)Cc2ccccc2-3)cc1 | inactive |
| Cn1ccnc1C(=O)/C=C/c1ccc(CC(=O)Nc2ccc(F)cc2)cc1 | inactive |
| CC(=O)OC1Oc2cc(C)c(C)cc2-c2oc(=O)c(-c3ccc(F)cc3)cc21 (centres undefined) | inactive |
| O=C(Nc1ccc(OCc2nnc(-c3ccccc3)o2)c(F)c1)Nc1ccc(Cl)c(C(F)(F)F)c1 | inactive |

Each compound tested received a call. Report the one for CC(C)n1c(=O)n(C)c2cnc3cc(F)c(-c4ccc(OCCCN5CCCCC5)nc4)cc3c21 . inactive

Please let me know the test result on file for O=S(=O)(CCNCc1ccc(-c2ccc3ncnc(Nc4ccc(OCc5cccc(F)c5)c(Cl)c4)c3c2)o1)c1ccccc1 . inactive

Dear all, I need the recorded test outcome for COc1ccc(-c2nc(N3CCOCC3)c3sc(CN(C)c4ncc(C(=O)NO)cn4)cc3n2)cn1 , thank you. active

Hi, sorry to bother you, what did the test record for COc1cc(C2CC(c3ccccc3)=NN2C(C)=O)cc(OC)c1OC (centres undefined) ? inactive

###

Documented TGI across a set of compounds
# Tested on: SF-268 CNS
# protocol-text: NCI tumour cell line growth inhibition, 48 h

The following compounds have reported results that may help.
| compound | TGI |
| --- | --- |
| CC(C)(C)C1(O)C=C(O)C(=O)N1NC(=O)c1ccccc1Nc1ccccc1 (stereo unspecified) | > 100 µM |
| CCCC(=O)NC(C(=O)OCC)(N1CCOCC1)C(F)(F)F (stereo unspecified) | > 100 µM |
| CC(C(=O)O)/C(=C\c1ccc2c(c1)OCO2)C(=O)O (stereo unspecified) | > 100 µM |
| C/C=N\n1c(C)c(C#N)c(C#N)c1N | > 100 µM |
| CC(=O)OC1Oc2cc(C)c(C)cc2-c2oc(=O)c(-c3ccc(F)cc3)cc21 (stereo unspecified) | > 100 µM |

In plain terms, O=C1/C(=C/c2ccc(Cl)cc2)N=C(c2ccccc2)N1c1nc2c(Cl)cc(Cl)cc2s1 has a documented TGI of > 100 µM

Input Cc1cc(C)c2nc3nc(C)cc(C)c3c(N)c2c1 . Output TGI: 21.6 µM

TGI for CC1(C)CCCCCCC2CC2CCCCCC(C)(C)C1=O (stereo unspecified) is > 100 µM

###

# System: RPMI-8226 leukemia
# protocol-text: NCI tumour cell line growth inhibition, 48 h
Entries and their TGI values follow.

| molecule | metric-name | reported-measurement |
| --- | --- | --- |
| C/C(=N\Nc1nc2ccccc2s1)c1cnccn1 | TGI | > 47.8 µM |
| C[C@@H](CO)C1=CC(C#C[Si](C)(C)C)N(C(=O)Oc2ccccc2)c2ccccc21 (stereo partly specified) | TGI | 90.4 µM |
| CN(C)C1(N(C)C)Oc2c(c(=O)n(C)c(=O)n2C)C(c2ccccc2Br)C1(F)F (stereo unspecified) | TGI | > 100 µM |
| CCOC(=O)N1CCN(c2nc(C)n(-c3ccccc3)c(=S)c2C#N)CC1 | TGI | > 100 µM |
| CCOC1(OCC)N=C(N)C2(C#N)C3(C(=O)N(C(C)C)N=C3C)C12C#N (stereo unspecified) | TGI | > 100 µM |
| N#C/C(=C1C=C/C(=N\O)C(Cl)=C\1)c1ccccc1 | TGI | 4.41 µM |
| C(=NCCCN1CCN(CCCN=Cc2cccc3ccccc23)CC1)c1cccc2ccccc12 | TGI | > 100 µM |
| Cc1ccc2c(c1)C(C1Cc3cccc(C)c3C1=O)OC2=O (stereo unspecified) | TGI | 88.3 µM |

So, COc1cccc(Cn2c(-c3nonc3NC(C)=O)nc3ccccc32)c1 ? Its TGI was > 100 µM

Entry under test: CN=C(N)/N=C(\N)Nc1cc2ccccc2c2ccccc12 . Its TGI was 43.3 µM

Lookup result for COc1c(O)c(O)c2c(c1O)C(=O)c1cc(C)cc(O)c1C2=O ; measured TGI: > 100 µM

###

# Test system: SK-OV-3 ovarian
# protocol-text: NCI tumour cell line growth inhibition, 48 h
Each item that follows carries a reported GI50.

Example entries and their recorded answers appear below.
| compound | GI50 |
| --- | --- |
| CCOC(=O)c1c(Cl)c2c(n1Cc1cccc(OC)c1)-c1oncc1CC2 | 3.36 µM |
| OCC1OC(n2cnc3c2NC=NC[C@H]3O)CC1O (stereo not given in full) | > 588 µM |
| O=C1CC[C@H](c2ccc(O)c3c2C(=O)[C@@H]2O[C@@H]2C3=O)c2cccc(O)c21 | 16.6 µM |
| CSC1=Nc2c(c(C)c(C)n2COC(CO)CO)C2=NC(=O)CC(C)N12 (stereo not given) | > 100 µM |

# GI50 (compound: COc1ccc(OC)c(/C=C2\COc3ccc(O)c(O)c3C2=O)c1 ) is 6.94 µM

###

# Test system: BT-549 breast
# protocol-text: NCI tumour cell line growth inhibition, 48 h; in the data active means GI50 below about 0.43 µM; inactive means the rest
Permitted responses: Y for active, N for inactive

A selection of reference data follows.
| compound | category-label |
| --- | --- |
| COc1ccc(OC)c(/C=C2\COc3ccc(O)c(O)c3C2=O)c1 | N |
| Cc1[nH]nc2ccc3nc(-c4ccc5[nH]ncc5c4)c4c(c3c12)CCCC4 | N |
| CSC1=Nc2c(c(C)c(C)n2COC(CO)CO)C2=NC(=O)CC(C)N12 (configuration not stated) | N |
| COc1ccc2c(c1)/C(=C\c1c(Cl)n(C)c3ccccc13)C(=O)N2 | N |
| COC1=CC(c2ccc[nH]2)=N/C1=C\c1[nH]c(C)c(C(C)=O)c1C | Y |
| CC1(C)N=C(N)N=C(N)N1c1cccc(CCCCOc2ccccc2)c1 | N |
| COc1cc(C2CC(c3ccccc3)=NN2C(C)=O)cc(OC)c1OC (configuration not stated) | N |
| C/C(=C\CCc1ccsc1)CC/C=C(\C)CCCN1CCC(CO)CC1 | N |

Any idea what this test logged for Cc1ccc(-c2nc(N)c(C#N)c3c2CCOc2c-3ccc3ccccc23)cc1 ? N

Record lookup: outcome of this test for COc1ccc(-c2nc(N3CCOCC3)c3sc(CN(C)c4ncc(C(=O)NO)cn4)cc3n2)cn1 ? Y

# outcome recorded in this test, key = N#C/C(=C1C=C/C(=N\O)C(Cl)=C\1)c1ccccc1 N

Please indicate how the test categorized N#Cc1c(N)nc(NCc2ccccc2)c(C#N)c1-c1ccccc1Cl . N

Which outcome was assigned to Clc1ccc(C2=NN[C@H](c3cn(-c4ccccc4)nc3-c3ccccc3)C2)cc1 in this test? N

Would you mind telling me which call this test gave Oc1ccc(-c2cn3cc(Cl)sc3n2)cc1 ? N

Call for entry Cc1ccc(NC2=C(Cl)C(=O)N(Cc3ccccc3)C2=O)cc1Cl : N

Can you look up the reported call for O=C(CN1C(=O)S/C(=C\C(Cl)=C\c2ccccc2)C1=O)NCCc1ccc(O)cc1 for me? N

What is the recorded call for this compound in the test? COc1cc(/C=C2\C(=O)N(c3ccccc3)c3ccccc32)cc(OC)c1OC N
